Hey, just so you know, these numbers are from ChEMBL document CHEMBL1142811.

IC50 for assorted compounds
targetOrTestSystem: Melanocortin receptor 4 (Homo sapiens)
assayProcedure: Inhibition of [125I]-NDP- alpha-MSH binding to human melanocortin 4 receptor
endpointName: IC50 (nM)

>>> endpointresult("COc1ccc(N2N=C(Sc3ccc(Cl)cc3)CC(CC[C@@H](C)NC(=O)[C@H]3CCNC[C@@H]3c3ccc(F)cc3)C2=O)cc1 (stereo in doubt; 63)")
22
>>> endpointresult("COc1ccc(N2N=C(Sc3ccc(Cl)cc3)CC(CC[C@@H](C)NC(=O)[C@H]3CNCC[C@@H]3c3ccc(F)cc3)C2=O)cc1 (stereo in doubt; 26)")
1.5

* * *

targetOrTestSystem: Melanocortin receptor 3 (Homo sapiens, UniProt P41968)
Sequence (P41968 whole entry): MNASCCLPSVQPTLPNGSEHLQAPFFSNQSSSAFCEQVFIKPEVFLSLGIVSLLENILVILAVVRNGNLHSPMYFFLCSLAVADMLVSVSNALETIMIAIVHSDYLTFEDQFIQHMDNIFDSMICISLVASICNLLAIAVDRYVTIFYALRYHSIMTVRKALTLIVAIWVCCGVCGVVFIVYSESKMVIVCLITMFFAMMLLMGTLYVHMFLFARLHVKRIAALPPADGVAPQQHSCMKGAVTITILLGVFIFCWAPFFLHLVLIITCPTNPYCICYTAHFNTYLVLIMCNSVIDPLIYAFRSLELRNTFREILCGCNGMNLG
assayProcedure: Inhibition of [125I]-NDP- alpha-MSH binding to human melanocortin 3 receptor expressed in CHO cells
Format: cell-based
endpointName: IC50 (nM)

>>> endpointresult("COc1ccc(-n2nc(Sc3ccc(Cl)cc3)cc(CC[C@@H](C)NC(=O)[C@H]3CNCC[C@@H]3c3ccc(F)cc3)c2=O)cc1")
940

* * *

Catalogue of pIC50 values
targetOrTestSystem: Melanocortin receptor 5 (Homo sapiens)
Sequence (P33032 whole entry): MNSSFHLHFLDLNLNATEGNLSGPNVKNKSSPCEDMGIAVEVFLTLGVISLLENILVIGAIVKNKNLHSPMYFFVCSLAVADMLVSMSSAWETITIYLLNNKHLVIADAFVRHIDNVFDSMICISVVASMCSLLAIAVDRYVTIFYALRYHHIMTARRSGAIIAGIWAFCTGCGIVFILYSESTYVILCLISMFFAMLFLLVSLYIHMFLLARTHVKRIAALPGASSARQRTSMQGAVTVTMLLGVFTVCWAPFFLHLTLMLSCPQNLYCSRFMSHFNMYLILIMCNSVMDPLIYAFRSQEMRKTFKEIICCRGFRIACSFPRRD
assayProcedure: Inhibition of [125I]-NDP- alpha-MSH binding to human melanocortin 5 receptor expressed in CHO cells
Type: cell-based
pIC50: −log10 of the molar value.
endpointName: pIC50

>>> endpointresult("COc1ccc(-n2nc(Sc3ccc(Cl)cc3)cc(CC[C@@H](C)NC(=O)[C@H]3CNC[C@@H]3c3ccc(F)cc3)c2=O)cc1")
5.85
>>> endpointresult("COc1ccc(-n2nc(Sc3ccc(Cl)cc3)cc(CC[C@@H](C)NC(=O)[C@H]3CCNC[C@@H]3c3ccc(F)cc3)c2=O)cc1")
5.92
>>> endpointresult("COc1ccc(-n2nc(Sc3ccc(Cl)cc3)cc(CC[C@@H](C)NC(=O)[C@H]3CNCC[C@@H]3c3ccc(F)cc3)c2=O)cc1")
6.08

* * *

targetOrTestSystem: Melanocortin receptor 3 (Homo sapiens, UniProt P41968)
assayProcedure: Inhibition of [125I]-NDP- alpha-MSH binding to human melanocortin 3 receptor
pIC50: −log10 of the molar value.
endpointName: pIC50

>>> endpointresult("COc1ccc(N2N=C(Sc3ccc(Cl)cc3)CC(CC[C@@H](C)NC(=O)C3CNC[C@@H]3c3ccc(F)cc3)C2=O)cc1 (single isomer, unassigned; 67)")
5.80
>>> endpointresult("COc1ccc(N2N=C(Sc3ccc(Cl)cc3)CC(CC[C@@H](C)NC(=O)[C@H]3CCNC[C@@H]3c3ccc(F)cc3)C2=O)cc1 (stereo in doubt; 63)")
5.33
>>> endpointresult("COc1ccc(N2N=C(Sc3ccc(Cl)cc3)CC(CC[C@@H](C)NC(=O)[C@H]3CNCC[C@@H]3c3ccc(F)cc3)C2=O)cc1 (stereo in doubt; 26)")
6.38

* * *

targetOrTestSystem: Melanocortin receptor 4 (Homo sapiens, UniProt P32245)
Sequence (P32245 whole entry): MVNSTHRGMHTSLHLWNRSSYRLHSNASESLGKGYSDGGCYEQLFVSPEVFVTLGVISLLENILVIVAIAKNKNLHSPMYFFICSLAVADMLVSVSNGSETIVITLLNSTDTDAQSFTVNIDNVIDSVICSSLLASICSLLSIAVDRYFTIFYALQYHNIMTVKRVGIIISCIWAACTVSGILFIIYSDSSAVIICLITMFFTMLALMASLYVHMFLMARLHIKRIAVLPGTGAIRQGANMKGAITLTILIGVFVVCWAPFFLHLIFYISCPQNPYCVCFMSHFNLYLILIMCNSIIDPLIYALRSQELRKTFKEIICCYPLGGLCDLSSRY
assayProcedure: Maximum percentage of cAMP accumulation relative to alpha-MSH at human melanocortin 4 receptor at 10 uM
Assay type: functional
# key: entry, value: Max
endpointName: Max (%)

>>> endpointresult("COc1ccc(N2N=C(Sc3ccc(Cl)cc3)CC(CC[C@@H](C)NC(=O)[C@H]3CNCC[C@@H]3c3ccc(F)cc3)C2=O)cc1 (stereo in doubt; 25)")
72
>>> endpointresult("COc1ccc(-n2nc(Sc3ccc(Cl)cc3)cc(CC[C@@H](C)NC(=O)[C@H]3CCNC[C@@H]3c3ccc(Cl)cc3Cl)c2=O)cc1")
30
>>> endpointresult("COc1ccc(-n2nc(Sc3ccc(Cl)cc3)cc(CC[C@@H](C)NC(=O)[C@H]3CNCC[C@@H]3c3ccccc3)c2=O)cc1")
77
